assay: blood-stage malaria parasite viability loss – strain 3D7, DAPI fluorescence, 100 nL, primary screen (AID 1184);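 also: parasites grown inside human red blood cells in medium with human serum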; settings: P. falciparum 3D7 growth, 3 d, higher = more signal
Measured Attribute: z-score

1) C=C(C(=O)CC[C@H](OC(C)=O)c1ccccc1OCCO)C(C)C : -2.09
2) O=C(CS)NCCCCCNC(=O)[C@@H]1C[C@@H]2C(=O)NCC(=O)N2[C@@H]1c1cccc(OCCO)c1 : 0.082
3) O=C(NC1CC1)[C@@H]1c2ccccc2C(=O)N(Cc2cc(F)cc(C(F)(F)F)c2)[C@H]1c1ccc(CO)cc1 : -0.247
4) O=C1N(CCS(=O)(=O)c2ccccc2)c2ccccc2[C@@H]2OC(c3ccc(OCCCO)cc3)=N[C@]12Cc1ccccc1 : -2.17
5) CC(c1ccccc1)C(O)C1C=CC2C(=O)N(C)C(=O)C2N1NC(=O)OC(C)(C)C (stereo not drawn) : 1.05
6) CN1C(=O)C2C=CC(C(O)c3c(F)cccc3Cl)N(NC(=O)OC(C)(C)C)C2C1=O (stereo not drawn) : 0.436
7) NC(=O)[C@@H]1[C@H]2C(=O)O[C@H](c3ccccc3)[C@H](c3ccccc3)N2[C@H](c2ccc(OCCO)cc2)[C@@]12C(=O)Nc1ccc(C#CC3=CCCCC3)cc12 : -0.962
8) O=C1OCCC=C[C@H]2OC34C=CCN(CCN5CCOCC5)C(=O)[C@H]3N(CCCCCO)C(=O)[C@@H]4C12 (stereo partly drawn) : 0.124

###

experiment: binders of probe aHhip on microarray, primary screen, stem cell growth factor project, biochemical, small-molecule microarray, fluorescence 635/667 (AID 1087); details: higher = more signal;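 also: score merges spot fluorescence at 667nm with spot signal to noise ratio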
Measured Attribute: composite z-score

1. C=C(CCCC)/C(=C/C[C@H](OC(=O)c1ccncc1)c1ccc(OCCO)cc1)c1cc(C(=O)OC)ccc1OC : -0.195
2. COc1ccccc1CN1C(=O)c2ccccc2[C@@]2(Cc3ccccc3N(CCCN(C)C)C2=O)[C@@H]1c1ccc(CO)cc1 : -0.0645
3. O=C(NCc1ccccc1)[C@@H]1c2ccccc2C(=O)N(C2Cc3ccccc3C2)[C@H]1c1ccc(CO)cc1 : -0.181
4. C=CCC(OC(C)=O)[C@@H]1[C@@H](N(Cc2ccc(-c3ccccc3)cc2)C(=O)Cc2ccc(F)cc2)c2cc(OCCCO)ccc2N1C(=O)c1ccc2ccccc2c1 (stereo partly drawn) : -0.226
5. NCCCCCNC(=O)[C@H]1C[C@H]2C(=O)N3CCC[C@H]3C(=O)N2[C@H]1c1ccc(O)cc1 : 0.399
6. CCCC(=O)N(CCc1c[nH]c2ccccc12)[C@@H]1CC(C(=O)NCCO)=C[C@H](Oc2c(I)cc(CO)cc2OC)[C@H]1O : -0.214
7. COc1ccc([C@H]2OC[C@@H]3CCC(=O)N32)cc1 : -0.0581
8. CC1CC/C=C\[C@H]2OC34C=CCN(c5ccc6ccccc6c5)C(=O)[C@H]3N(CCO)C(=O)[C@@H]4C2C(=O)O1 (stereo partly drawn) : 1.74

###

Reported z-score values for the following compounds.
experiment: plasmodial surface anion channel blockers, osmotic lysis – cell-based, P. falciparum Indochina, OD700, 18 h, primary screen (AID 1157); settings: P. falciparum Indochina infected erythrocytes, osmotic lysis OD700, 18 h; higher = more signal, called active from +8 up or from −8 down
Measured Attribute: z-score

1. O=C(O)[C@H](Cc1ccccc1)n1cc(-c2ccccc2)nn1 : 0.161
2. CCCC=C(CCC)[C@@H](NC(=O)OCC(C)C)c1ccccc1 : -1.61
3. COc1ccc([Si](C)(C)[C@@H]2[C@@H](CC(=O)N3CCC[C@H]3CO)O[C@]3(C(=O)N(Cc4cccc(I)c4)c4ccccc43)[C@H]2C)cc1 : 0.917
4. CO[C@H]1O[C@H](CO)[C@@H](OC(=O)Nc2ccccc2)[C@@H]2OC(=O)[C@@H](Cc3ccc4ccccc4c3)C/C=C/C[C@H](Cc3ccc4ccccc4c3)C(=O)O[C@@H]12 : -1.83
5. O=C1C2C=CC(C(O)c3ccc(F)cc3)N(Nc3ccc([N+](=O)[O-])cc3)C2C(=O)N1c1ccccc1 (stereo not drawn) : 1.22
6. COCCOC(=O)N1C(=O)[C@@]2(c3cc(C#CC4(O)CCCCCC4)ccc31)[C@H](c1ccccc1OCCO)N1[C@H](c3ccccc3)[C@H](c3ccccc3)OC(=O)[C@H]1[C@@H]2C(=O)N1CCc2cc(OC)c(OC)cc2C1 : 0.773
7. CC(C)(C)OC(=O)CC[C@]1(C(N)=O)N=C(c2ccc(OCCCO)cc2)O[C@H]1c1ccccc1 : -0.367
8. O=C1NC(=O)C2C1C=CC(C(O)C1CC=CCC1)N2Nc1ccccn1 (stereo not drawn) : 0.288
